Test system: Tsu-pr1-ADR human prostate cancer cell line
protocol.text: MTT assay, Tsu-pr1-ADR cells
Format: cell-based
experimental.context: Table 1, read-out: ID50 Tsu-pr1-ADR
Protocol: The polyamine analogs inhibited prostate cancer cell growth in vitro., as indicated in Table 1 and FIG. 1, FIG. 2, FIG. 3, FIG. 4, and FIG. 5. Tissue cultures and the MTT assay were performed as follows. […] Tissue Culture. […] The flasks were rapped on the lab bench, pipetted several times and aliquots of cell suspension were withdrawn and counted using a Coulter particle counter that has been standardized for counting each cell line using a hemacytometer. […]
readout.kind: IC50

1) CCNCCCCNCC1CC1CNCCCCNCC (racemic) | > 31.2 µM

---

Tested on: PC-3 human prostate cancer cell line
protocol.text: MTT assay, PC-3 cells
Assay type: cell-based
experimental.context: Homo sapiens, Table 1, PC-3, read-out: ID50 PC-3
readout.kind: IC50

1. CCNCCCCNCC1CC1CNCCCCN (stereo not shown) | > 31.2 µM

Reference source for all entries: patent US7453011B2
